target: VR1 (Homo sapiens); assay: Calcium uptake assay, low pH (proton) stimulus; type: cell-based; design: expressed in transfected cells; host or cells: T-REx HEK 293 (Invitrogen), pcDNA5/TO vector; details: HEK293; 0.3 μM compound; low pH agonist; HEK 293 cells expressing hVR1; read-out: Low pH % Inhib. @ 0.3 μM
Sequence (Q8NER1 whole entry): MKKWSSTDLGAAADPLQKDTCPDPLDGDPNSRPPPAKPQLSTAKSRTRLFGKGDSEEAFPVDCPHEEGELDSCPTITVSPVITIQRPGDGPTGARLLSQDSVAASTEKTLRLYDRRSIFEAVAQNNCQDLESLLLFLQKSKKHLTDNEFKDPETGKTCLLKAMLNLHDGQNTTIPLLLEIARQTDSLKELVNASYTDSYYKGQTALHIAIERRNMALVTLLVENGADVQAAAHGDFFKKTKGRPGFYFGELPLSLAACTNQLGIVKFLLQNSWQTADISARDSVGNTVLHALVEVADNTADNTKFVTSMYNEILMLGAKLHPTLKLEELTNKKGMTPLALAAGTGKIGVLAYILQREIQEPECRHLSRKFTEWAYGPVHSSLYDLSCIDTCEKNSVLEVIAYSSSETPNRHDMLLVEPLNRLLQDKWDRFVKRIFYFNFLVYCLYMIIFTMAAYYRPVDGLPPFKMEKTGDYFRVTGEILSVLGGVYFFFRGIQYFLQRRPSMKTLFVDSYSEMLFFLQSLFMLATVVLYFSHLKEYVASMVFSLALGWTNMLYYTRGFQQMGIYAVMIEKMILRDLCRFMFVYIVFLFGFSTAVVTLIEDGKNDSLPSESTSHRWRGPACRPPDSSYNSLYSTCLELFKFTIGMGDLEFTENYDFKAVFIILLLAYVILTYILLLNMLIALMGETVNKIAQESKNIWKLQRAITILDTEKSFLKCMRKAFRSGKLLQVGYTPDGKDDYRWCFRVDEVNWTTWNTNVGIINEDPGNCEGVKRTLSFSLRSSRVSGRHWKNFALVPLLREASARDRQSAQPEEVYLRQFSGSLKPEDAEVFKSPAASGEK
valueKind: inhibition at 0.3 µM (%)

Previously resolved entries follow.
CC(=O)N1CC(C)(C)c2ccc(NC(=O)c3ccc(C#CC(C)(C)C)cc3)cc21
140
O=C(Nc1ccc2c(c1)OCCO2)c1ccc(/C=C/C(F)(F)F)cc1
97
Cc1nc2cc(NC(=O)c3ccc(/C=C/C(F)(F)F)cc3F)ccc2s1
85
CC(C)(C)C#Cc1ccc(C(=O)Nc2ccc3c(c2)OCC(CO)O3)cc1 (stereo not drawn)
98
C/C(=C\C(F)(F)F)c1ccc(C(=O)Nc2ccc3c(c2)OCCN3)cc1
99
Cc1cc(C#CC(C)(C)C)ccc1C(=O)Nc1ccc2c(c1)OC[C@H](CO)N2
102
Cc1cc(C#CC(C)(C)C)ccc1C(=O)Nc1ccc2[nH]cnc2c1
74

I = Cc1cc(/C=C/C(F)(F)F)ccc1C(=O)Nc1cccc2cnccc12
II = CN1C(=O)COc2ccc(NC(=O)c3ccc(/C=C/C(F)(F)F)cc3)cc21
Of the pair I and II , name the member with the lesser recorded inhibition at 0.3 µM. Mark your selection by writing its label. II
(II: 45%, I: 90%)
